Molecular target: Glutamate receptor ionotropic, kainate 2 (Rattus norvegicus) (UniProt P42260)
Sequence (P42260 whole entry): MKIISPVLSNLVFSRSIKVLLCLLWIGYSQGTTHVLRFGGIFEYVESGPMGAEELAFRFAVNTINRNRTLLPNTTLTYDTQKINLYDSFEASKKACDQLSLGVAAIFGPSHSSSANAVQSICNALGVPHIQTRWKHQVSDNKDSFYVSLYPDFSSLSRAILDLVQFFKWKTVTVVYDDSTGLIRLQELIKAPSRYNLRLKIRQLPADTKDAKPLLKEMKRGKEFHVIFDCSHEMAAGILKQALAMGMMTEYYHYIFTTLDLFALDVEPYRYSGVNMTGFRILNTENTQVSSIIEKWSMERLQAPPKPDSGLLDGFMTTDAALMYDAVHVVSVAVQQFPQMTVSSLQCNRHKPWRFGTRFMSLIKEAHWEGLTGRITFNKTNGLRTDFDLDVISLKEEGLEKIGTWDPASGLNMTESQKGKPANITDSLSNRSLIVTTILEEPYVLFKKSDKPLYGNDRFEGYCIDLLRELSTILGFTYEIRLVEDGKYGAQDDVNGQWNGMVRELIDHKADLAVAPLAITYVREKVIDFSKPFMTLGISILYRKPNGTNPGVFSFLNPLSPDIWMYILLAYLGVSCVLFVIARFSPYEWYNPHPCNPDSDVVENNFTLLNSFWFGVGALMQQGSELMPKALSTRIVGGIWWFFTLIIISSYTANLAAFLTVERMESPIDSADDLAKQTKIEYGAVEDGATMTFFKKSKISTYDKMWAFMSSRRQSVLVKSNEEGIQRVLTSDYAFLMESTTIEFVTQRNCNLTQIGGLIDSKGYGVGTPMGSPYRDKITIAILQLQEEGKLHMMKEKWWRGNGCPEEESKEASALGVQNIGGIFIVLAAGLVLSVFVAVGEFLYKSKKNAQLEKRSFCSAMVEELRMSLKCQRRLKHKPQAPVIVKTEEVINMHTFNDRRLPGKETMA
Assay: Antagonist activity at rat recombinant GluR6 expressed in Xenopus laevis oocytes assessed as inhibition of concanavalin A/glutamate-induced current at 3 uM by two electrode voltage clamp method relative to control
Assay type: functional, cell-based
Conditions: Oocyte
Assignment: determine reported % response for the given molecules.
Answer in %, number only, no unit symbol.

Query: I have this molecule here, CS(=O)(=O)Nc1ccc(OCC(=O)NCCCc2ccc(Cl)c(Cl)c2)cc1 , and I need its recorded % response.
Reply: 102

Query: I would be grateful if you could share the reported % response for CS(=O)(=O)Nc1ccc(CCC(=O)NNC(=O)c2ccc(Cl)c(Cl)c2)cc1 .
Reply: 97

Query: Request the reported % response associated with CS(=O)(=O)Nc1ccc(CCC(=O)NC/C=C/c2ccc(Cl)c(Cl)c2)cc1
Reply: 100

Query: Which % response is listed for CS(=O)(=O)Nc1ccc(CCC(=O)NCCCNc2ccc(Cl)c(Cl)c2)cc1 ?
Reply: 98

Query: Given CS(=O)(=O)Nc1ccc(CCC(=O)NCCNc2ccc(Cl)c(Cl)c2)cc1 , state its recorded % response.
Reply: 98

Query: # % response lookup, item CS(=O)(=O)Nc1ccc(OCCN2CCN(c3ccc(Cl)c(Cl)c3)C2=O)cc1
Reply: 103

Query: # get_value(readout='% response', item= CS(=O)(=O)Nc1ccc(CCC(=O)NNC(=S)Nc2ccc(Cl)c(Cl)c2)cc1 )
Reply: 96

Query: So what does the record say about % response for CS(=O)(=O)Nc1ccc(CCC(=O)NNCCc2ccc(Cl)c(Cl)c2)cc1 ?
Reply: 98

Query: May I ask what % response has been recorded for CS(=O)(=O)Nc1ccc(OCC(=O)NC/C=C/c2ccc(Cl)c(Cl)c2)cc1 ?
Reply: 94

Query: Any idea what its % response is? The molecule is CS(=O)(=O)Nc1ccc(OCC(=O)NCCNc2ccc(Cl)c(Cl)c2)cc1
Reply: 99

Query: What does the record list as % response for CS(=O)(=O)Nc1ccc(OCCNCC(=O)Nc2ccc(Cl)c(Cl)c2)cc1 ?
Reply: 98
